The origin of these recorded values is ChEMBL document CHEMBL1137759.

Please provide measured IC50 for the entries that follow.
Respond with a number, then the unit of measure.

Lookup: IC50 / Coagulation factor X (Homo sapiens) / C/C=C\Cc1ccc(-c2ccc(C(=O)NCC(C)C)cc2C(=O)O)c(C(=O)Nc2ccc(C(=N)N)cc2)c1 7.6 µM

Lookup: IC50 / Coagulation factor X (Homo sapiens) / CC(C)CNC(=O)c1ccc(-c2ccc(-c3ccoc3CO)cc2C(=O)Nc2ccc(C(=N)N)cc2)c(C(=O)O)c1 0.02 µM

Lookup: IC50 / Coagulation factor X (Homo sapiens) / CC(C)CNC(=O)c1ccc(-c2ccccc2C(=O)Nc2ccc(C(=N)N)cc2)c(C(=O)O)c1 103 µM

Lookup: IC50 / Coagulation factor X (Homo sapiens) / CC(C)CNC(=O)c1ccc(-c2ccc(-c3cccs3)cc2C(=O)Nc2ccc(C(=N)N)cc2)c(C(=O)O)c1 0.15 µM

Lookup: IC50 / Coagulation factor X (Homo sapiens) / CC(C)CNC(=O)c1ccc(-c2ccc(-c3ccncc3)cc2C(=O)Nc2ccc(C(=N)N)cc2)c(C(=O)O)c1 19.4 µM

Lookup: IC50 / Coagulation factor X (Homo sapiens) / CC(C)CNC(=O)c1ccc(-c2ccc(-c3ccsc3CO)cc2C(=O)Nc2ccc(C(=N)N)cc2)c(C(=O)O)c1 0.45 µM

Lookup: IC50 / Coagulation factor X (Homo sapiens) / CC(C)CNC(=O)c1ccc(-c2ccc(-c3cscc3CN)cc2C(=O)Nc2ccc(C(=N)N)cc2)c(C(=O)O)c1 0.01 µM

Lookup: IC50 / Coagulation factor X (Homo sapiens) / CC(C)CNC(=O)c1ccc(-c2ccc(-c3cccnc3)cc2C(=O)Nc2ccc(C(=N)N)cc2)c(C(=O)O)c1 36.5 µM

Lookup: IC50 / Coagulation factor X (Homo sapiens) / CC(C)CNC(=O)c1ccc(-c2ccc(-c3ccco3)cc2C(=O)Nc2ccc(C(=N)N)cc2)c(C(=O)O)c1 1.3 µM

Lookup: IC50 / Coagulation factor X (Homo sapiens) / C=C(CO)c1ccc(-c2ccc(C(=O)NCC(C)C)cc2C(=O)O)c(C(=O)Nc2ccc(C(=N)N)cc2)c1 7.1 µM

Lookup: IC50 / Coagulation factor X (Homo sapiens) / CC(C)CNC(=O)c1ccc(-c2ccc(-c3ccsc3)cc2C(=O)Nc2ccc(C(=N)N)cc2)c(C(=O)O)c1 0.04 µM

Lookup: IC50 / Coagulation factor X (Homo sapiens) / C=C(CCO)c1ccc(-c2ccc(C(=O)NCC(C)C)cc2C(=O)O)c(C(=O)Nc2ccc(C(=N)N)cc2)c1 11.3 µM

Lookup: IC50 / Coagulation factor X (Homo sapiens) / CC(C)CNC(=O)c1ccc(-c2ccc(C=CCO)cc2C(=O)Nc2ccc(C(=N)N)cc2)c(C(=O)O)c1 6.62 µM

Lookup: IC50 / Coagulation factor X (Homo sapiens) / CC(C)CNC(=O)c1ccc(-c2ccc(-c3ccoc3)cc2C(=O)Nc2ccc(C(=N)N)cc2)c(C(=O)O)c1 0.12 µM

====

Target: Prothrombin (Homo sapiens, UniProt P00734)
For each record, check the reported IC50: if it is below 20 µM write YES, else write NO.

Report whether reported IC50 is lower than 20 µM (strictly) for CC(C)CNC(=O)c1ccc(-c2ccc(-c3ccco3)cc2C(=O)Nc2ccc(C(=N)N)cc2)c(C(=O)O)c1 YES

Report whether reported IC50 is lower than 20 µM (strictly) for CC(C)CNC(=O)c1ccc(-c2ccc(-c3ccoc3)cc2C(=O)Nc2ccc(C(=N)N)cc2)c(C(=O)O)c1 YES

Report whether reported IC50 is lower than 20 µM (strictly) for CC(C)CNC(=O)c1ccc(-c2ccc(Cc3ccccc3)cc2C(=O)Nc2ccc(C(=N)N)cc2)c(C(=O)O)c1 YES

Report whether reported IC50 is lower than 20 µM (strictly) for C/C=C\Cc1ccc(-c2ccc(C(=O)NCC(C)C)cc2C(=O)O)c(C(=O)Nc2ccc(C(=N)N)cc2)c1 YES

Report whether reported IC50 is lower than 20 µM (strictly) for COc1ccc(-c2ccc(C(=O)NCC(C)C)cc2C(=O)O)c(C(=O)Nc2ccc(C(=N)N)cc2)c1 YES

Report whether reported IC50 is lower than 20 µM (strictly) for CC(C)CNC(=O)c1ccc(-c2ccc(-c3cccn3C)cc2C(=O)Nc2ccc(C(=N)N)cc2)c(C(=O)O)c1 NO

Report whether reported IC50 is lower than 20 µM (strictly) for CC(C)CNC(=O)c1ccc(-c2ccc(-c3ccoc3CO)cc2C(=O)Nc2ccc(C(=N)N)cc2)c(C(=O)O)c1 NO

Report whether reported IC50 is lower than 20 µM (strictly) for CC(C)CNC(=O)c1ccc(-c2ccc(C#CCCO)cc2C(=O)Nc2ccc(C(=N)N)cc2)c(C(=O)O)c1 YES

Report whether reported IC50 is lower than 20 µM (strictly) for C=C(CO)c1ccc(-c2ccc(C(=O)NCC(C)C)cc2C(=O)O)c(C(=O)Nc2ccc(C(=N)N)cc2)c1 NO

Report whether reported IC50 is lower than 20 µM (strictly) for CC(C)CNC(=O)c1ccc(-c2ccc(-c3cccnc3)cc2C(=O)Nc2ccc(C(=N)N)cc2)c(C(=O)O)c1 NO

====

For reference, IC50 measured on UniProt:P00742:

Need IC50 of C=Cc1ccc(-c2ccc(C(=O)NCC(C)C)cc2C(=O)O)c(C(=O)Nc2ccc(C(=N)N)cc2)c1 , thanks. 1.65 µM

Need IC50 of CC(C)CNC(=O)c1ccc(-c2ccc(Cc3ccccc3)cc2C(=O)Nc2ccc(C(=N)N)cc2)c(C(=O)O)c1 , thanks. 1.75 µM

Need IC50 of CC(C)CNC(=O)c1ccc(-c2ccc(-c3cocc3CO)cc2C(=O)Nc2ccc(C(=N)N)cc2)c(C(=O)O)c1 , thanks. 0.23 µM

Need IC50 of CC(C)CNC(=O)c1ccc(-c2ccc(-c3cccn3C)cc2C(=O)Nc2ccc(C(=N)N)cc2)c(C(=O)O)c1 , thanks. 0.05 µM

====

Target: Prothrombin (Homo sapiens)
Test: Inhibition of thrombin
reported-property: IC50 (µM)
Answer in µM, number only, no unit symbol.

Need IC50 of CC(C)CNC(=O)c1ccc(-c2ccc(-c3cscc3CN=[N+]=[N-])cc2C(=O)Nc2ccc(C(=N)N)cc2)c(C(=O)O)c1 , thanks. 157

Need IC50 of C#Cc1ccc(-c2ccc(C(=O)NCC(C)C)cc2C(=O)O)c(C(=O)Nc2ccc(C(=N)N)cc2)c1 , thanks. 50.2

Need IC50 of C=C=Cc1ccc(-c2ccc(C(=O)NCC(C)C)cc2C(=O)O)c(C(=O)Nc2ccc(C(=N)N)cc2)c1 , thanks. 28

Need IC50 of CC(C)CNC(=O)c1ccc(-c2ccc(-c3cccs3)cc2C(=O)Nc2ccc(C(=N)N)cc2)c(C(=O)O)c1 , thanks. 8.02

Need IC50 of CC#Cc1ccc(-c2ccc(C(=O)NCC(C)C)cc2C(=O)O)c(C(=O)Nc2ccc(C(=N)N)cc2)c1 , thanks. 50

Need IC50 of CC(C)CNC(=O)c1ccc(-c2ccc(-c3ccsc3)cc2C(=O)Nc2ccc(C(=N)N)cc2)c(C(=O)O)c1 , thanks. 15

Need IC50 of CC(C)CNC(=O)c1ccc(-c2ccc(-c3sccc3CO)cc2C(=O)Nc2ccc(C(=N)N)cc2)c(C(=O)O)c1 , thanks. 50

Need IC50 of CC(C)CNC(=O)c1ccc(-c2ccc(-c3cscc3CO)cc2C(=O)Nc2ccc(C(=N)N)cc2)c(C(=O)O)c1 , thanks. 63.1

====

Please provide measured IC50 for the entries that follow.
Target: Coagulation factor VII/tissue factor (Homo sapiens, UniProt P08709)
Sequence (P08709 61-212 limits assumed): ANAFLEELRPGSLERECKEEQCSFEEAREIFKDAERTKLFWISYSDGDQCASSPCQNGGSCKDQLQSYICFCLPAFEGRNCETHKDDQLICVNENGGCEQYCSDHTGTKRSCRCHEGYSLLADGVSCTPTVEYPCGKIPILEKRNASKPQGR
Sequence (P08709 213-466 limits assumed): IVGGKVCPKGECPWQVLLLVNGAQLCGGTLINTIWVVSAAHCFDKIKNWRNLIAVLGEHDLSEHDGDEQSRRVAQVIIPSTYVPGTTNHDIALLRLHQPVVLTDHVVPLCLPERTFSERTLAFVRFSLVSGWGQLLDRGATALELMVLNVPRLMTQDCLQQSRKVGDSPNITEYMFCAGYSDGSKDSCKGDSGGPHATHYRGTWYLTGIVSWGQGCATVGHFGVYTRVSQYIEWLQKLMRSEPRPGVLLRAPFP
Sequence (P13726 33-295 partner limits assumed): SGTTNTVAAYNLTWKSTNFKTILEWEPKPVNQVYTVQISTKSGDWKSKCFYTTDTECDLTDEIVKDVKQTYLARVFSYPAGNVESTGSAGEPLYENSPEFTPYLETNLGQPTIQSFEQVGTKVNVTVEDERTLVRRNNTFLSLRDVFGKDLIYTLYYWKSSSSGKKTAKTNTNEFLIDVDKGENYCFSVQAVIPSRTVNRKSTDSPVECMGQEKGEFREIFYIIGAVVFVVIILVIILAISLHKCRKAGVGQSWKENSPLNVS
Assay: Inhibition of tissue factor/factor 7a
Answer in nM, number only, no unit symbol.

Need IC50 of C#Cc1ccc(-c2ccc(C(=O)NCC(C)C)cc2C(=O)O)c(C(=O)Nc2ccc(C(=N)N)cc2)c1 , thanks. 25

Need IC50 of C=C(CO)c1ccc(-c2ccc(C(=O)NCC(C)C)cc2C(=O)O)c(C(=O)Nc2ccc(C(=N)N)cc2)c1 , thanks. 12

Need IC50 of CC(C)CNC(=O)c1ccc(-c2ccc(-c3cccs3)cc2C(=O)Nc2ccc(C(=N)N)cc2)c(C(=O)O)c1 , thanks. 10

Need IC50 of CCc1ccc(-c2ccc(C(=O)NCC(C)C)cc2C(=O)O)c(C(=O)Nc2ccc(C(=N)N)cc2)c1 , thanks. 97

Need IC50 of C=C(C)/C=C\c1ccc(-c2ccc(C(=O)NCC(C)C)cc2C(=O)O)c(C(=O)Nc2ccc(C(=N)N)cc2)c1 , thanks. 130

Need IC50 of CC(C)CNC(=O)c1ccc(-c2ccc(-c3sccc3CO)cc2C(=O)Nc2ccc(C(=N)N)cc2)c(C(=O)O)c1 , thanks. 330

Need IC50 of CC(C)CNC(=O)c1ccc(-c2ccc(-c3ccoc3CO)cc2C(=O)Nc2ccc(C(=N)N)cc2)c(C(=O)O)c1 , thanks. 8

Need IC50 of CC(C)CNC(=O)c1ccc(-c2ccc(-c3cscc3CN=[N+]=[N-])cc2C(=O)Nc2ccc(C(=N)N)cc2)c(C(=O)O)c1 , thanks. 9

Need IC50 of CC(C)CNC(=O)c1ccc(-c2ccc(O)cc2C(=O)Nc2ccc(C(=N)N)cc2)c(C(=O)O)c1 , thanks. 67

Need IC50 of C=C=Cc1ccc(-c2ccc(C(=O)NCC(C)C)cc2C(=O)O)c(C(=O)Nc2ccc(C(=N)N)cc2)c1 , thanks. 9

Need IC50 of CC#Cc1ccc(-c2ccc(C(=O)NCC(C)C)cc2C(=O)O)c(C(=O)Nc2ccc(C(=N)N)cc2)c1 , thanks. 34

Need IC50 of CC(C)CNC(=O)c1ccc(-c2ccc(-c3nccs3)cc2C(=O)Nc2ccc(C(=N)N)cc2)c(C(=O)O)c1 , thanks. 104

Need IC50 of CC(C)CNC(=O)c1ccc(-c2ccc(-c3cccnc3)cc2C(=O)Nc2ccc(C(=N)N)cc2)c(C(=O)O)c1 , thanks. 546

Need IC50 of CC(C)CNC(=O)c1ccc(-c2ccc(-c3ccc[nH]3)cc2C(=O)Nc2ccc(C(=N)N)cc2)c(C(=O)O)c1 , thanks. 14

Need IC50 of C=C(C)c1ccc(-c2ccc(C(=O)NCC(C)C)cc2C(=O)O)c(C(=O)Nc2ccc(C(=N)N)cc2)c1 , thanks. 13

Need IC50 of CC(C)CNC(=O)c1ccc(-c2ccc(Cc3cccs3)cc2C(=O)Nc2ccc(C(=N)N)cc2)c(C(=O)O)c1 , thanks. 11

Need IC50 of CC(C)=CCc1ccc(-c2ccc(C(=O)NCC(C)C)cc2C(=O)O)c(C(=O)Nc2ccc(C(=N)N)cc2)c1 , thanks. 45

Need IC50 of CC(C)CNC(=O)c1ccc(-c2ccc(-c3cscc3CN)cc2C(=O)Nc2ccc(C(=N)N)cc2)c(C(=O)O)c1 , thanks. 33

Need IC50 of CC(C)CNC(=O)c1ccc(-c2ccc(C(O)CO)cc2C(=O)Nc2ccc(C(=N)N)cc2)c(C(=O)O)c1 (stereo unspecified) , thanks. 1610

Need IC50 of CCCc1ccc(-c2ccc(C(=O)NCC(C)C)cc2C(=O)O)c(C(=O)Nc2ccc(C(=N)N)cc2)c1 , thanks. 92

Need IC50 of CC(C)CNC(=O)c1ccc(-c2ccc(-c3ccsc3)cc2C(=O)Nc2ccc(C(=N)N)cc2)c(C(=O)O)c1 , thanks. 10

Need IC50 of CC(C)CNC(=O)c1ccc(-c2ccc(-c3ccsc3CO)cc2C(=O)Nc2ccc(C(=N)N)cc2)c(C(=O)O)c1 , thanks. 36

Need IC50 of CC(C)CNC(=O)c1ccc(-c2ccc(-c3cccn3C)cc2C(=O)Nc2ccc(C(=N)N)cc2)c(C(=O)O)c1 , thanks. 76

Need IC50 of CC(C)CNC(=O)c1ccc(-c2ccc(Cc3ccccc3)cc2C(=O)Nc2ccc(C(=N)N)cc2)c(C(=O)O)c1 , thanks. 21

Need IC50 of CC(C)CNC(=O)c1ccc(-c2ccccc2C(=O)Nc2ccc(C(=N)N)cc2)c(C(=O)O)c1 , thanks. 120

Need IC50 of CC(C)CNC(=O)c1ccc(-c2ccc(-c3ccoc3)cc2C(=O)Nc2ccc(C(=N)N)cc2)c(C(=O)O)c1 , thanks. 11
